- EXPERIMENTAL TARGET: T1, EsCas13d, nuclease-dead (Eubacterium siraeum, UniProt B0MS50, R295A;H300A;R849A;H854A)
- T1 sequence: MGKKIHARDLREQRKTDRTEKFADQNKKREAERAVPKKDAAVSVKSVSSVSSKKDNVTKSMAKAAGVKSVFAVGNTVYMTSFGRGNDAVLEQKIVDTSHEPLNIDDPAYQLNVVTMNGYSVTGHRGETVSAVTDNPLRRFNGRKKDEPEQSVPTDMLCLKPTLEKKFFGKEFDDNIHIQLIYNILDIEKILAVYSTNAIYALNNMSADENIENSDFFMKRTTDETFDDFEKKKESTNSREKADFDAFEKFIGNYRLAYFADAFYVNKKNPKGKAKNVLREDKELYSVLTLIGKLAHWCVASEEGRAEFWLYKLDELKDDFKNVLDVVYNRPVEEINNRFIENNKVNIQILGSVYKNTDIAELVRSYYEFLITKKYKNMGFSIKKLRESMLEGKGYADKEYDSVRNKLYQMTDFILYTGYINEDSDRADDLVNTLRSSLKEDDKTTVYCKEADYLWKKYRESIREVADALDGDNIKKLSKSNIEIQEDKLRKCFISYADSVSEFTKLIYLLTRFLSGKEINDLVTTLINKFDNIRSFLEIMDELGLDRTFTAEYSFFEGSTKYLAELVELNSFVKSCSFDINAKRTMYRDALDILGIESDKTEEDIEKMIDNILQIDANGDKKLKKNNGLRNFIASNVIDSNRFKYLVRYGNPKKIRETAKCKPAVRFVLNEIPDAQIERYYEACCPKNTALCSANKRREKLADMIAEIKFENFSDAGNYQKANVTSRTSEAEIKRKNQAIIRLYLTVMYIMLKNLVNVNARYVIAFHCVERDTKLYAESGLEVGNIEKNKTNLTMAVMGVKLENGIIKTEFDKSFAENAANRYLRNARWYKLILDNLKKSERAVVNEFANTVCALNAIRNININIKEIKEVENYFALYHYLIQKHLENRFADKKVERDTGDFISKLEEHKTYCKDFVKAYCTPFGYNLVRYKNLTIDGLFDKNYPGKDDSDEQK
- PROCEDURE TEXT: crRNA (strand 1, pre-loaded); Mg2+; 40 mM Tris-HCl pH 7.5, 150 mM NaCl, 6 mM MgCl2, 1 mM DTT, 0.1% Tween-20, 0.2 mg/ml BSA; 25 C; 10 min per concentration, then washed
- CONDITIONS: tags: His6-TwinStrep-SUMO cleaved; N-terminal SNAP kept (SNAP-Surface 488); label: 3' end held by stalled T7 RNA polymerase
Catalogue of pKd readings, one per entry.
// field semantics: pKd = negative decimal log of concentration (mol/L)

Worked cases, pKd given:
target 1 insA 3' of 2,insC 3' of 1 (mixed) RNA 1: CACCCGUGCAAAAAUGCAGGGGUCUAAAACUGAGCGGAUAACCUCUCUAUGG RNA 2: GGGAAUGGAUCCACAUCUACGAAUUCGUACCAUAGAGAGGUUAUCCGCUCAACCCGAGAUCGGAAGAGCACACGU: 8.07
target 1 A1G,C21U (mixed) RNA 1: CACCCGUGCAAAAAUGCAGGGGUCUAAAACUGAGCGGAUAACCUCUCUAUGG RNA 2: GGGAAUGGAUCCACAUCUACGAAUUCGUACUAUAGAGAGGUUAUCCGCUCGCCGAGAUCGGAAGAGCACACGU: 8.20
target 2 MT 5'PFS GUU 3'PFS UAC (mixed) RNA 1: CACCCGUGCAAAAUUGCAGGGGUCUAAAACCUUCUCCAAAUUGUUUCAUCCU RNA 2: GGGAAUGGAUCCACAUCUACGAAUUCGUUAGGAUGAAACAAUUUGGAGAAGUACAGAUCGGAAGAGCACACGU: 7.66
target 1 del3,del4 (mixed) RNA 1: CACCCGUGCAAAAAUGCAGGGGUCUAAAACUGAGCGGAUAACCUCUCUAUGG RNA 2: GGGAAUGGAUCCACAUCUACGAAUUCGUACCAUAGAGAGGUUAUCCGCACCGAGAUCGGAAGAGCACACGU: 7.84
target 3 U22A (mixed) RNA 1: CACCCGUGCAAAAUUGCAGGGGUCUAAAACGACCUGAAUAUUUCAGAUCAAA RNA 2: GGGAAUGGAUCCACAUCUACGAAUUCGUUAUUGAUCUGAAAUAUUCAGGUCUGCAGAUCGGAAGAGCACACGU: 7.83

What pKd value was documented for this binder, target 1 MT 5'PFS GGC 3'PFS AAG (mixed) RNA 1: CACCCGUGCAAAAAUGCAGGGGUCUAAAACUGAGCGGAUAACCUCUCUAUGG RNA 2: GGGAAUGGAUCCACAUCUACGAAUUCGGCCCAUAGAGAGGUUAUCCGCUCAAAGAGAUCGGAAGAGCACACGU ?
7.44

Look up pKd for this binder: target 2 MT 5'PFS GCU 3'PFS UAA (mixed) RNA 1: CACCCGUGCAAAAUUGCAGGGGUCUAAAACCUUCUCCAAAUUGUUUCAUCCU RNA 2: GGGAAUGGAUCCACAUCUACGAAUUCGCUAGGAUGAAACAAUUUGGAGAAGUAAAGAUCGGAAGAGCACACGU
8.11

Bench note: what pKd did target 1 insC 3' of 12,insG 3' of 8 (mixed) RNA 1: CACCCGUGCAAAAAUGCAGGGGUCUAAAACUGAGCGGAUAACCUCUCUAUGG RNA 2: GGGAAUGGAUCCACAUCUACGAAUUCGUACCAUAGAGAGGCUUAUGCCGCUCACCGAGAUCGGAAGAGCACACGU show?
7.82

For the binder target 1 A1U,A18U (mixed) RNA 1: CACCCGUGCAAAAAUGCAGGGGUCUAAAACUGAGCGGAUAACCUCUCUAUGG RNA 2: GGGAAUGGAUCCACAUCUACGAAUUCGUACCAUUGAGAGGUUAUCCGCUCUCCGAGAUCGGAAGAGCACACGU , what pKd is on record?
7.66

Please report the recorded pKd for target 2 MT 5'PFS GGG 3'PFS CGC (mixed) RNA 1: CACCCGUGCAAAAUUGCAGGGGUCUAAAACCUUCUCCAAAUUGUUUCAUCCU RNA 2: GGGAAUGGAUCCACAUCUACGAAUUCGGGAGGAUGAAACAAUUUGGAGAAGCGCAGAUCGGAAGAGCACACGU .
7.98

Look up pKd for this binder: target 1 insG 3' of 22,insG 3' of 2 (mixed) RNA 1: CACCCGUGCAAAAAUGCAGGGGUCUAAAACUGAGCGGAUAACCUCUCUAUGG RNA 2: GGGAAUGGAUCCACAUCUACGAAUUCGUACGCAUAGAGAGGUUAUCCGCUCGACCGAGAUCGGAAGAGCACACGU
7.42

Which pKd is reported for this binder? target 2 MT 5'PFS AAA 3'PFS AUC (mixed) RNA 1: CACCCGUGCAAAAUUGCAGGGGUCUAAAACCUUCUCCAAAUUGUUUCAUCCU RNA 2: GGGAAUGGAUCCACAUCUACGAAUUCAAAAGGAUGAAACAAUUUGGAGAAGAUCAGAUCGGAAGAGCACACGU
8.44

Look at this binder and give its reported pKd. target 3 C1G,U2A (mixed) RNA 1: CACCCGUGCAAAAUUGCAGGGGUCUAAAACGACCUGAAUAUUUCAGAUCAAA RNA 2: GGGAAUGGAUCCACAUCUACGAAUUCGUUUUUGAUCUGAAAUAUUCAGGAGUGCAGAUCGGAAGAGCACACGU
8.34

For target 2 MT 5'PFS UAC 3'PFS AUC (mixed) RNA 1: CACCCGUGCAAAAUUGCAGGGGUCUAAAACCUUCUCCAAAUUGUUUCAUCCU RNA 2: GGGAAUGGAUCCACAUCUACGAAUUCUACAGGAUGAAACAAUUUGGAGAAGAUCAGAUCGGAAGAGCACACGU , what is its reported pKd?
8.15

Requested field: pKd. Item: target 1 MT 5'PFS GAA 3'PFS AGU (mixed) RNA 1: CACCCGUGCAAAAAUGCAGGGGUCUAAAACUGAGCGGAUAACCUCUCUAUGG RNA 2: GGGAAUGGAUCCACAUCUACGAAUUCGAACCAUAGAGAGGUUAUCCGCUCAAGUAGAUCGGAAGAGCACACGU
7.37

Values from paper PMC10786891
